Measured Bliss excess accompanies every entry in the list below.
Test system: SF268 (Low Grade Glioma)
Assay: Bliss excess, mean over the matrix (fraction); higher = more synergy
Write the number on its own, no unit after it.

Please review the following examples before continuing.
CC1(C)CCC(CN2CCN(c3ccc(C(=O)NS(=O)(=O)c4ccc(NCC5CCOCC5)c([N+](=O)[O-])c4)c(Oc4cnc5[nH]ccc5c4)c3)CC2)=C(c2ccc(Cl)cc2)C1 [Venetoclax] + COc1cc(Nc2ncc3c(n2)-c2ccc(Cl)cc2C(c2c(F)cccc2OC)=NC3)ccc1C(=O)O [Alisertib] (first compound max 1 µM, 7x7, partner max 10 µM): 0.0151
CC1(C)CCC(CN2CCN(c3ccc(C(=O)NS(=O)(=O)c4ccc(NCC5CCOCC5)c([N+](=O)[O-])c4)c(Oc4cnc5[nH]ccc5c4)c3)CC2)=C(c2ccc(Cl)cc2)C1 [Venetoclax] + C1CN(CCC1(C(=O)N[C@@H](CCO)C2=CC=C(C=C2)Cl)N)C3=NC=NC4=C3C=CN4 [Capivasertib] (first compound max 1 µM, 7x7, partner max 3 µM): -0.0095
Cc1cc2ncnn2cc1Nc1ncc2c(n1)n(C1CCOCC1)c(=O)n2C [AZD7648] + CN(C)CCCOc1ccc(-c2ccc3ncc4c(c3c2)n(C2CCOCC2)c(=O)n4C)cn1 [AZD0156] (first compound max 10 µM, 7x7, partner max 1 µM): 0.0098

Hello, please tell me recorded Bliss excess for this one: Cc1c2c(nn1C)CSCc1cc(n(C)n1)CSc1cc(c3ccccc3c1)OCCCc1c(C(=O)O)n(C)c3c-2c(Cl)ccc13 [AZD5991] + CN(C)CCCOc1ccc(-c2ccc3ncc4c(c3c2)n(C2CCOCC2)c(=O)n4C)cn1 [AZD0156] (first compound max 1 µM, 7x7, partner max 1 µM)
0.0324

Hello, please tell me recorded Bliss excess for this one: CN(CCO)CC[C@H](CSc1ccccc1)Nc1ccc(S(=O)(=O)NC(=O)c2ccc(N3CCC([C@@H](O)c4ccccc4-c4ccc(Cl)cc4)CC3)cc2)cc1S(=O)(=O)C(F)(F)F [AZD4320] + CN(C)CCCOc1ccc(-c2ccc3ncc4c(c3c2)n(C2CCOCC2)c(=O)n4C)cn1 [AZD0156] (first compound max 1 µM, 7x7, partner max 1 µM)
-0.0012

----------
Test system: A2058 (Melanoma)
Assay: combination Emax (second highest fraction inhibited in the dose matrix, 72 h); higher = more inhibition; extreme values may be limits of the assay
Would you please tag the item label 1 when its combination Emax is 0.7 or above, and label 0 when it is below?

COc1cccc(OCCCN)c1-c1cc(Nc2cnc(C#N)cn2)n[nH]1 [Prexasertib] + C[C@@H]1COCCN1C2=NC(=NC(=C2)C3(CC3)[S@](=N)(=O)C)C4=C5C=CNC5=NC=C4 [AZD6738] (first compound max 1 µM, 7x7, partner max 10 µM): label 0
COc1cccc(OCCCN)c1-c1cc(Nc2cnc(C#N)cn2)n[nH]1 [Prexasertib] + CCc1c2c(nc3ccc(O)cc13)-c1cc3c(c(=O)n1C2)COC(=O)[C@]3(O)CC [SN-38] (first compound max 1 µM, 7x7, partner max 0.3 µM): label 1
CC1(C)CCC(CN2CCN(c3ccc(C(=O)NS(=O)(=O)c4ccc(NCC5CCOCC5)c([N+](=O)[O-])c4)c(Oc4cnc5[nH]ccc5c4)c3)CC2)=C(c2ccc(Cl)cc2)C1 [Venetoclax] + C[C@@H]1COCCN1C2=NC(=NC(=C2)C3(CC3)[S@](=N)(=O)C)C4=C5C=CNC5=NC=C4 [AZD6738] (first compound max 1 µM, 7x7, partner max 10 µM): label 1

Hi, just wondering whether Cn1cnc2c(F)c(Nc3ccc(Br)cc3Cl)c(C(=O)NOCCO)cc21 [Selumetinib] + CCN(CCO)CCCOc1ccc2c(Nc3cc(CC(=O)Nc4cccc(F)c4)[nH]n3)ncnc2c1 [AZD2811] (first compound max 10 µM, 7x7, partner max 1 µM) shows combination Emax of 0.7 or higher.
label 0

Hi, just wondering whether COc1cccc2c1C(=O)c1c(O)c3c(c(O)c1C2=O)C[C@@](O)(C(=O)CO)C[C@@H]3O[C@H]1C[C@H](N)[C@H](O)[C@H](C)O1 [Doxorubicin] + Cc1cc2ncnn2cc1Nc1ncc2c(n1)n(C1CCOCC1)c(=O)n2C [AZD7648] (first compound max 1 µM, 7x7, partner max 10 µM) shows combination Emax of 0.7 or higher.
label 0

Hi, just wondering whether NC1(C(=O)N[C@@H](CCO)c2ccc(Cl)cc2)CCN(c2ncnc3[nH]ccc23)CC1 [Capivasertib] + CCN(CCO)CCCOc1ccc2c(Nc3cc(CC(=O)Nc4cccc(F)c4)[nH]n3)ncnc2c1 [AZD2811] (first compound max 10 µM, 7x7, partner max 1 µM) shows combination Emax of 0.7 or higher.
label 1

----------
Test system: LK-2 (Squamous Cell Lung Carcinoma)
Test: combination Emax (second highest fraction inhibited in the dose matrix, 72 h); higher = more inhibition; extreme values may be limits of the assay
Measured combination Emax accompanies every entry in the list below.
Write the number on its own, no unit after it.

Cn1cnc2c(F)c(Nc3ccc(Br)cc3Cl)c(C(=O)NOCCO)cc21 [Selumetinib] + CCN(CCO)CCCOc1ccc2c(Nc3cc(CC(=O)Nc4cccc(F)c4)[nH]n3)ncnc2c1 [AZD2811] (first compound max 10 µM, 7x7, partner max 1 µM): 0.795

Recall the reported combination Emax of Cc1c2c(nn1C)CSCc1cc(n(C)n1)CSc1cc(c3ccccc3c1)OCCCc1c(C(=O)O)n(C)c3c-2c(Cl)ccc13 [AZD5991] + C1CN(CCC1(C(=O)N[C@@H](CCO)C2=CC=C(C=C2)Cl)N)C3=NC=NC4=C3C=CN4 [Capivasertib] (first compound max 1 µM, 7x7, partner max 3 µM) on LK-2 (Squamous Cell Lung Carcinoma) and write it down.
0.121

----------
Test system: NCI-H23 (Lung Adenocarcinoma)
Test: combination Emax (second highest fraction inhibited in the dose matrix, 72 h); higher = more inhibition; extreme values may be limits of the assay
Measured combination Emax accompanies every entry in the list below.
Write the number on its own, no unit after it.

CC1(C)CCC(CN2CCN(c3ccc(C(=O)NS(=O)(=O)c4ccc(NCC5CCOCC5)c([N+](=O)[O-])c4)c(Oc4cnc5[nH]ccc5c4)c3)CC2)=C(c2ccc(Cl)cc2)C1 [Venetoclax] + Cc1cc2ncnn2cc1Nc1ncc2c(n1)n(C1CCOCC1)c(=O)n2C [AZD7648] (first compound max 1 µM, 7x7, partner max 10 µM): 0.184

Hello, please tell me recorded combination Emax for this one: Cc1c2c(nn1C)CSCc1cc(n(C)n1)CSc1cc(c3ccccc3c1)OCCCc1c(C(=O)O)n(C)c3c-2c(Cl)ccc13 [AZD5991] + CN(C)CCCOc1ccc(-c2ccc3ncc4c(c3c2)n(C2CCOCC2)c(=O)n4C)cn1 [AZD0156] (first compound max 1 µM, 7x7, partner max 1 µM)
0.913

Hello, please tell me recorded combination Emax for this one: COc1nnc2ccc(N3CCC(c4ccc(OCCN5CCN(C)C(=O)[C@H]5C)cc4)CC3)nn12 [AZD5153] + CCN(CCO)CCCOc1ccc2c(Nc3cc(CC(=O)Nc4cccc(F)c4)[nH]n3)ncnc2c1 [AZD2811] (first compound max 1 µM, 7x7, partner max 1 µM)
0.666

----------
Tested on: SK-PN-DW (Other Solid Carcinomas)
Experiment: combination Emax (second highest fraction inhibited in the dose matrix, 72 h); higher = more inhibition; extreme values may be limits of the assay
quantity-measured: combination Emax
Write the number on its own, no unit after it.

Please review the following examples before continuing.
COc1cccc(OCCCN)c1-c1cc(Nc2cnc(C#N)cn2)n[nH]1 [Prexasertib] + CN(C)CCCOc1ccc(-c2ccc3ncc4c(c3c2)n(C2CCOCC2)c(=O)n4C)cn1 [AZD0156] (first compound max 1 µM, 7x7, partner max 1 µM): 0.948
CN(CCO)CC[C@H](CSc1ccccc1)Nc1ccc(S(=O)(=O)NC(=O)c2ccc(N3CCC([C@@H](O)c4ccccc4-c4ccc(Cl)cc4)CC3)cc2)cc1S(=O)(=O)C(F)(F)F [AZD4320] + CN(C)CCCOc1ccc(-c2ccc3ncc4c(c3c2)n(C2CCOCC2)c(=O)n4C)cn1 [AZD0156] (first compound max 1 µM, 7x7, partner max 1 µM): 0.326

For the next question, use this molecule.
Hello, please tell me recorded combination Emax for this one: CC(=O)Nc1cccc(-n2c(=O)n(C3CC3)c(=O)c3c(Nc4ccc(I)cc4F)n(C)c(=O)c(C)c32)c1 [Trametinib] + Cc1nc(-c2cn3c(n2)-c2ccc(-c4cnn(C(C)(C)C(N)=O)c4)cc2OCC3)n(C(C)C)n1 [Taselisib] (first compound max 1 µM, 7x7, partner max 10 µM)
0.695

----------
Measured Bliss excess accompanies every entry in the list below.
Tested on: NCI-H446 (Small Cell Lung Carcinoma)
Assay: Bliss excess, mean over the matrix (fraction); higher = more synergy

CC1(C)CCC(CN2CCN(c3ccc(C(=O)NS(=O)(=O)c4ccc(NCC5CCOCC5)c([N+](=O)[O-])c4)c(Oc4cnc5[nH]ccc5c4)c3)CC2)=C(c2ccc(Cl)cc2)C1 [Venetoclax] + C1CN(CCC1(C(=O)N[C@@H](CCO)C2=CC=C(C=C2)Cl)N)C3=NC=NC4=C3C=CN4 [Capivasertib] (first compound max 1 µM, 7x7, partner max 3 µM): -0.0257
NC1(C(=O)N[C@@H](CCO)c2ccc(Cl)cc2)CCN(c2ncnc3[nH]ccc23)CC1 [Capivasertib] + C[C@@H]1COCCN1C2=NC(=NC(=C2)C3(CC3)[S@](=N)(=O)C)C4=C5C=CNC5=NC=C4 [AZD6738] (first compound max 10 µM, 7x7, partner max 10 µM): -0.0166

For the next question, use this compound.
Recall the reported Bliss excess of COc1nnc2ccc(N3CCC(c4ccc(OCCN5CCN(C)C(=O)[C@H]5C)cc4)CC3)nn12 [AZD5153] + CC1(C)CCC(CN2CCN(c3ccc(C(=O)NS(=O)(=O)c4ccc(NCC5CCOCC5)c([N+](=O)[O-])c4)c(Oc4cnc5[nH]ccc5c4)c3)CC2)=C(c2ccc(Cl)cc2)C1 [Venetoclax] (first compound max 1 µM, 7x7, partner max 1 µM) on NCI-H446 (Small Cell Lung Carcinoma) and write it down.
0.0507
